Target: Prostaglandin E2 receptor EP4 subtype (Homo sapiens, UniProt P35408)
Sequence (P35408 whole entry): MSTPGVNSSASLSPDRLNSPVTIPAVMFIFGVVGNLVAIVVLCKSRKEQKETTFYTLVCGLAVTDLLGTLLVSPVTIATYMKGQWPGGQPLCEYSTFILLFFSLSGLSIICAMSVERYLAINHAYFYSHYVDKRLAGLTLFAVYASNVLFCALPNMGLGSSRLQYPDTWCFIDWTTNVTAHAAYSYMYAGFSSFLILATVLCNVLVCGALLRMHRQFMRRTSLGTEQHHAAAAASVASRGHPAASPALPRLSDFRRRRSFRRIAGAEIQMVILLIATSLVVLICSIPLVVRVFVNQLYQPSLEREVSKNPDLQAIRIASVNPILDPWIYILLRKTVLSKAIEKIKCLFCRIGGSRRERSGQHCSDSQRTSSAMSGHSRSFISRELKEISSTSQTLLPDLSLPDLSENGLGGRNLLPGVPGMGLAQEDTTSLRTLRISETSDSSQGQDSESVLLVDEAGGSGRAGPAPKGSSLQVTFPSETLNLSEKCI
Experiment: hEP4 cAMP Assay
assay-metric: IC50 (nM)

INSERT INTO results (molecule, measurement_target, assay_metric, unit_text, number) VALUES
  ('Cc1cc(F)cc2c1cc(C)n2CCNc1cc(-c2cccc(-n3cccn3)c2)ncn1 [US12011444, Example 729]', 'Prostaglandin E2 receptor EP4 subtype (Homo sapiens, UniProt P35408)', 'IC50', 'nM', 783);

(A) COc1ccc(F)c2c1cc(C)n2CCNc1cc(-c2ccc(C(=O)O)c(N)c2)ncn1 [US12011444, Example 214]
(B) CCOc1cc(-c2cc(NCCn3c(C)cc4c(OC)ccc(F)c43)ncn2)ccc1C(=O)NOCCO [US12011444, Example 769]
Prompt: Hey, which is lower on measured IC50, A or B ? Response format: the label of the selected entry.
Response: B
(B: 259 nM, A: 786 nM)

----------
Molecular target: Prostaglandin E2 receptor EP2 subtype (Homo sapiens, UniProt P43116)
Sequence (P43116 whole entry): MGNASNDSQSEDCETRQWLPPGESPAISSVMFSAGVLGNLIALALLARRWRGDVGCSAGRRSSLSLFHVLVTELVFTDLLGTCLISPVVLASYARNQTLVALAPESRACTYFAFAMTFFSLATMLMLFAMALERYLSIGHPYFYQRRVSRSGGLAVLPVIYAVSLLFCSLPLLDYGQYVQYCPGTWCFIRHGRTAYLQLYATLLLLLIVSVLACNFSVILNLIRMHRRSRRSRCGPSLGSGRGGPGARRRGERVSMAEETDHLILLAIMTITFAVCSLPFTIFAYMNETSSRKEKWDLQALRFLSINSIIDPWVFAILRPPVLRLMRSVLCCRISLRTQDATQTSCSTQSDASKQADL
Assay: hEP2 cAMP Assay
assay-metric: IC50 (nM)

INSERT INTO assay_data (given_smiles, unit_text, number) VALUES
  ('Cc1cc(F)cc2c1cc(C)n2CCNc1cc(-c2cccc(-n3cccn3)c2)ncn1', 'nM', 45);

(1) Cc1ccc(F)c2c1cc(C)n2CCNc1cc(-c2ccc3c(c2)CNC3=O)ncn1
(2) CCOc1cc(-c2cc(NCCn3c(C)cc4c(OC)ccc(F)c43)ncn2)ccc1C(=O)NOCCO
Prompt: Out of 1 and 2 , name the one with the higher IC50. Response format: the label of the selected entry.
Response: 1

----------
Biological target: Prostaglandin E2 receptor EP2 subtype (Homo sapiens, UniProt P43116)
Test: hEP2 cAMP Assay
assay-metric: IC50 (nM)

Would you please look over these solved cases?
INSERT INTO assay_data (compound, assay_metric, unit_text, number) VALUES
  ('Cc1cc(F)cc2c1cc(C)n2CCNc1cc(-c2ccc(C(=O)O)c(NCC(F)(F)F)c2)ncn1 [US12011444, Example 559]', 'IC50', 'nM', 4),
  ('COc1ccc(F)c2c1cc(C)n2CCNc1cc(-c2ccc(C(=O)O)c(C(C)(C)C)c2)ncn1 [US12011444, Example 535]', 'IC50', 'nM', 68);

(A) COc1ccc(F)c2c1cc(C)n2CCNc1cc(-c2ccc(C(=O)O)c(N)c2)ncn1 [US12011444, Example 214]
(B) CCOc1cc(-c2cc(NCCn3c(C)cc4c(OC)ccc(F)c43)ncn2)ccc1C(=O)NOCc1ccccc1 [US12011444, Example 766]
(C) CCOc1cc(-c2cc(NCCn3c(C)cc4c(C)ccc(F)c43)ncn2)ccc1C(=O)NOCCO [US12011444, Example 771]
(D) COc1cc(F)c(F)c2c1cc(C)n2CCNc1cc(-c2ccc3oc(C)nc3c2)ncn1 [US12011444, Example 689]
Prompt: Arrange by IC50, high to low. Would you mind listing the labels in the order asked for?
Response: D, B, A, C
(D: 211 nM, B: 57 nM, A: 38 nM, C: 19 nM)

----------
Biological target: Prostaglandin E2 receptor EP4 subtype (Homo sapiens)
Assay: hEP4 cAMP Assay
pIC50: −log10 of the molar value.
assay-metric: pIC50

Would you please look over these solved cases?
INSERT INTO assay_data (given_smiles, number) VALUES
  ('COc1cc(F)cc2c1cc(C)n2CCNc1cc(-c2cc(O)cs2)ncn1', 6.86),
  ('Cc1cc(F)cc2c1cc(C)n2CCNc1cc(-c2ccc(C(=O)O)c(NCC(F)(F)F)c2)ncn1', 6.61),
  ('CCOc1cc(-c2cc(NCCn3c(C)cc4c(C)ccc(F)c43)ncn2)ccc1C(=O)NOCCO', 6.51),
  ('COc1ccc(F)c2c1cc(C)n2CCNc1cc(-c2ccc(C(=O)O)c(C(C)(C)C)c2)ncn1', 6.87),
  ('COc1cc(F)c(F)c2c1cc(C)n2CCNc1cc(-c2ccc3oc(C)nc3c2)ncn1', 6.25);

(1) Cc1ccc(F)c2c1cc(C)n2CCNc1cc(-c2ccc3c(c2)CNC3=O)ncn1
(2) CCOc1cc(-c2cc(NCCn3c(C)cc4c(OC)ccc(F)c43)ncn2)ccc1C(=O)NOCc1ccccc1
Prompt: Out of 1 and 2 , name the one with the higher pIC50. Response format: the label of the selected entry.
Response: 2
(2: 7.10, 1: 6.16)
